Values compiled from patent US6417375B1.

- assay_text: Solubility of the furylphosphine in water
- experimental_conditions: 20 °C
assay_readout: solubility
Please give the number followed by its unit.

Prompt line: State the recorded solubility for this entry: `O=P([O-])([O-])c1ccc(P(c2ccccc2)c2ccccc2)o1.[Na+].[Na+]`
Response line: 680 mg/mL
